We begin with a simple list: items and their reported pIC50.
# system: Axl (Homo sapiens, UniProt P30530)
# Sequence (P30530 26-894): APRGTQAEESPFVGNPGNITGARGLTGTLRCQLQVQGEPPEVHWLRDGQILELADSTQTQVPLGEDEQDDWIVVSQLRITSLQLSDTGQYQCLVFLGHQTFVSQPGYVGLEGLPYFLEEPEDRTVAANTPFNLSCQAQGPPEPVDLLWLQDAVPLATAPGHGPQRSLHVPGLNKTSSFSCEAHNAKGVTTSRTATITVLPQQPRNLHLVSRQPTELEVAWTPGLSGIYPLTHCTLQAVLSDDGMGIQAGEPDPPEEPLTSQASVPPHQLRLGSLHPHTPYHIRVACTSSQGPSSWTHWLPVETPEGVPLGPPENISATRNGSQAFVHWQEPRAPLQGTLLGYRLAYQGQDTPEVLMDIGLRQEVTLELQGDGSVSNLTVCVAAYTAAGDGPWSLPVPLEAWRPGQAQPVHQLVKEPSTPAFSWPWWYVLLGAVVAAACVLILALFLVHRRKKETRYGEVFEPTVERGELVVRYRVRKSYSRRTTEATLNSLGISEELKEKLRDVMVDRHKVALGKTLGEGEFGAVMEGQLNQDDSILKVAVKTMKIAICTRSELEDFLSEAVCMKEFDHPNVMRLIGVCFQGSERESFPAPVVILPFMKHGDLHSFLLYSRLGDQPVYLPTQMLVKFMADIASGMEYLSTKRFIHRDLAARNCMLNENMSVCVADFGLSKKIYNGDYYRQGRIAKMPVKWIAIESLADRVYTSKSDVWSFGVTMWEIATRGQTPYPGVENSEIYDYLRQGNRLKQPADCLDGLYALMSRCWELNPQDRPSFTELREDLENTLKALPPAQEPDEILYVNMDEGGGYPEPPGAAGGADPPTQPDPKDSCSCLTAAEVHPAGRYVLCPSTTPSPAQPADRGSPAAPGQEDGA
# protocol_text: Axl NanoBRET intracellular kinase assay (intracellular binding, Cell Binding)
# Design: host or cells: HEK-293
# conditions: HEK-293 cells transfected with Axl-NanoLuc fusion vector; 0.35 μM K-5 NanoBRET tracer
pIC50: −log10 of the molar value.
measure_name: pIC50

INSERT INTO measurements (compound, experimental_value) VALUES
  ('C[C@@H]1CCCN1C1(C)CCc2ccc(-c3cnc4[nH]nc(-c5ccc(C(C)(C)O)nc5)c4c3)cc2CC1 (stereo partly shown) [Example 22]', '> 7.00'),
  ('C[C@H]1CCCN1C1CCc2ccc(-c3cnc4[nH]nc(-c5ccc(S(=O)(=O)C6CC6)cc5)c4c3)cc2CC1 (stereo partly shown) [Example 24]', '> 7.00'),
  ('CCC1(N2CCC[C@H]2CO)CCc2ccc(-c3cnc4[nH]nc(-c5ccc(C(N)=O)c(Cl)c5)c4c3)cc2CC1 (stereo partly shown) [Example 75]', '> 7.00'),
  ('C[C@@H]1CCCN1C1CCc2ccc(-c3cnc4[nH]nc(-c5ccc(C6(O)CCC6)c(Cl)c5)c4c3)cc2CC1 (stereo partly shown) [Example 62]', '> 7.00'),
  ('CC1(N2CCC[C@@H]2CO)CCc2ccc(-c3cnc4[nH]nc(-c5ccc(S(=O)(=O)C6CC6)cc5)c4c3)cc2CC1 (stereo partly shown) [Example 3]', '> 7.00'),
  ('O=C(c1ccc(-c2n[nH]c3ncc(-c4ccc5c(c4)CC[C@@H](N4CCCC4)CC5)cc23)cc1Cl)N1CCNCC1 [Example 82]', '> 7.00'),
  ('Cc1cc2c(cc1-c1cnc3[nH]nc(-c4ccc(C(C)(C)O)c(Cl)c4)c3c1)CCC(N1CCC[C@H]1C)CC2 (stereo partly shown) [Example 90]', '6.00 to 7.00'),
  ('CC(O)(c1ccc(-c2n[nH]c3ncc(-c4ccc5c(c4)CCN(C4CCCC4)CC5)cc23)cc1)C(F)(F)F (stereo not shown) [Example 13]', '6.00 to 7.00'),
  ('NS(=O)(=O)c1ccc(-c2n[nH]c3ncc(-c4ccc5c(c4)CC[C@@H](N4CCCC4)CC5)cc23)cc1Cl [Example 91]', '> 7.00'),
  ('O=C([C@@H]1CCCN1)N1CCc2ccc(-c3cnc4[nH]nc(-c5ccc(S(=O)(=O)C6CC6)cc5)c4c3)cc2CC1 [Example 112]', '6.00 to 7.00'),
  ('c1cc2c(cc1-c1cnc3[nH]nc(-c4ccc(N5C[C@H]6C[C@@H]5CO6)cc4)c3c1)CC[C@@H](N1C3COCC1C3)CC2 [Example 126]', '6.00 to 7.00'),
  ('CC(C)S(=O)(=O)c1ccc(-c2n[nH]c3ncc(-c4ccc5c(c4)CC[C@@H](N4CCCC4)CC5)cc23)cc1 [Example 42]', '> 7.00'),
  ('COc1cc(-c2n[nH]c3ncc(-c4ccc5c(c4)CCC(C)(N4CCC[C@H]4C)CC5)cc23)ccc1OC[C@H]1COCCO1 (stereo partly shown) [Example 114]', '> 7.00'),
  ('C[C@@H]1CCCN1C1CCc2ccc(-c3cnc4[nH]nc(-c5ccc(S(=O)(=O)C6CC6)cc5)c4c3)cc2C(C)(C)C1 (stereo partly shown) [Example 109]', '> 7.00'),
  ('C[C@@H]1CCCN1C1(C)CCc2ccc(-c3cnc4[nH]cc(C5CCN(S(C)(=O)=O)CC5)c4c3)cc2CC1 (stereo partly shown) [Example 116]', '> 7.00'),
  ('CC(C)(O)c1ccc(-c2n[nH]c3ncc(-c4cc5c(cn4)CCC(N4CCCC4)CC5)cc23)cc1Cl (stereo not shown) [Example 59]', '> 7.00'),
  ('CC(C)(O)c1ccc(-c2n[nH]c3ncc(-c4ccc5c(c4)CCN(C4CCCC4)CC5)cc23)cc1Cl [Example 12]', '6.00 to 7.00'),
  ('O=C(c1ccc(-c2n[nH]c3ncc(-c4ccc5c(c4)CC[C@@H](N4CCCC4)CC5)cc23)cc1Cl)N1CCC(O)CC1 [Example 85]', '> 7.00'),
  ('CCC1(N2CCC[C@H]2C)CCc2ccc(-c3cnc4[nH]nc(-c5ccc(C(N)=O)c(Cl)c5)c4c3)cc2CC1 (stereo partly shown) [Example 73]', '> 7.00'),
  ('CC(C)NC(=O)c1ccc(-c2n[nH]c3ncc(-c4ccc5c(c4)CCC(C)(N4CCC[C@H]4C)CC5)cc23)cc1 (stereo partly shown) [Example 70]', '> 7.00'),
  ('C[C@@H]1CCCN1C1(C)CCc2ccc(-c3cnc4[nH]nc(-c5ccc(S(=O)(=O)C6CC6)c(F)c5)c4c3)cc2CC1 (stereo partly shown) [Example 25]', '> 7.00'),
  ('C[C@@H]1CCCN1[C@@H]1CCc2cc(-c3cnc4[nH]nc(-c5ccc(S(=O)(=O)C6CC6)cc5)c4c3)cnc2CC1 [Example 101]', '< 6.00'),
  ('CC(C)(O)c1ccc(-c2n[nH]c3ncc(-c4ccc5c(c4)CCC(N4CCCC4)CC5)cc23)cc1Cl (stereo not shown) [Example 11]', '> 7.00'),
  ('FC1CN(c2ccc(-c3c[nH]c4ncc(-c5ccc6c(c5)CC[C@@H](N5C7COCC5C7)CC6)cc34)cc2)C1 [Example 127]', '> 7.00'),
  ('NC(=O)c1ccc(-c2n[nH]c3ncc(-c4ccc5c(c4)CCC(N4CCCC4)CC5)cc23)cc1Cl (stereo not shown) [Example 77]', '> 7.00');

###

# system: UniProt P30530
# protocol_text: Axl NanoBRET intracellular kinase assay (intracellular binding, Cell Binding)
# Set-up: host or cells: HEK-293
# conditions: HEK-293 cells transfected with Axl-NanoLuc fusion vector; 0.35 μM K-5 NanoBRET tracer
Reported IC50 values follow for various compounds
measure_name: IC50

INSERT INTO assay_data (compound, system, experimental_value) VALUES
  ('C[C@@H]1CCCN1C1CCc2ccc(-c3cnc4[nH]nc(-c5ccc(C(C)(C)O)cn5)c4c3)cc2CC1 (stereo partly drawn) [Example 97]', 'UniProt P30530', '> 1000 nM'),
  ('O=C([C@H]1CCCN1)N1CCc2ccc(-c3cnc4[nH]nc(-c5ccc(S(=O)(=O)C6CC6)cc5)c4c3)cc2CC1 [Example 113]', 'UniProt P30530', '100 to 1000 nM'),
  ('Cc1cc(-c2n[nH]c3ncc(-c4ccc5c(c4)CCN(C(=O)C(C)C)CC5)cc23)ccc1C(=O)N1CCNCC1 [Example 48]', 'UniProt P30530', '100 to 1000 nM'),
  ('C[C@@H]1CCCN1C1(C)CCc2ccc(-c3cnc4[nH]nc(-c5ccc(C(=O)N6CCC6)cc5)c4c3)cc2CC1 (stereo partly drawn) [Example 76]', 'UniProt P30530', '< 100 nM'),
  ('COc1cc(-c2n[nH]c3ncc(-c4ccc5c(c4)CCC(C)(N4CCC[C@H]4C)CC5)cc23)ccc1C(N)=O (stereo partly drawn) [Example 53]', 'UniProt P30530', '< 100 nM'),
  ('C[C@@H]1CCCN1C1CCc2ccc(-c3cnc4[nH]nc(-c5ccc(S(C)(=O)=O)cc5)c4c3)cc2CC1 (stereo partly drawn) [Example 38]', 'UniProt P30530', '< 100 nM'),
  ('Cc1cc(-c2n[nH]c3ncc(-c4ccc5c(c4)CC[C@@H](N4CCCC4)CC5)cc23)cc(F)c1C(N)=O [Example 83]', 'UniProt P30530', '< 100 nM'),
  ('CC1(N2CCc3ccc(-c4cnc5[nH]nc(-c6ccc(S(=O)(=O)C7CC7)cc6)c5c4)cc3CC2)CCCC1 [Example 120]', 'UniProt P30530', '100 to 1000 nM'),
  ('C[C@@H]1CCCN1C1(C)CCc2ccc(-c3cnc4[nH]nc(-c5ccc(C(N)=O)cc5)c4c3)cc2CC1 (stereo partly drawn) [Example 54]', 'UniProt P30530', '< 100 nM'),
  ('NC(=O)c1ccc(-c2n[nH]c3ncc(-c4ccc5c(c4)CC[C@@H](N4CCCC4)CC5)cc23)cc1Cl [Example 84]', 'UniProt P30530', '< 100 nM'),
  ('C[C@@H]1CCCN1C1(C)CCc2ccc(-c3cnc4[nH]nc(-c5ccc(S(=O)(=O)C6CCCC6)cc5)c4c3)cc2CC1 (stereo partly drawn) [Example 45]', 'UniProt P30530', '100 to 1000 nM'),
  ('C[C@@H]1CCCN1C1(C)CCc2ccc(-c3cnc4[nH]nc(-c5ccc(S(=O)(=O)C6CC6)cc5)c4c3)cc2CC1 (stereo partly drawn) [Example 1]', 'UniProt P30530', '< 100 nM');
